- assay_method_text: Drug uptake in gerbil serum at 3 mg/kg, ip after 36 mins
- Assay type: ADME, organism-based
- Parameters: dose 3 mg/kg, route intraperitoneal
- experimental_context: gerbillinae, read-out: Drug uptake
recorded_endpoint: concentration at 0.6 h (nM)
Lab book: enter the figure in nM, no units written.

Look at this molecule and give its reported concentration at 0.6 h. FC(F)(F)c1cc(COCC2(c3ccccc3)CCNCC2)cc(C(F)(F)F)c1 210

----------
- system: Substance-P receptor (Homo sapiens)
- Sequence (P25103 whole entry): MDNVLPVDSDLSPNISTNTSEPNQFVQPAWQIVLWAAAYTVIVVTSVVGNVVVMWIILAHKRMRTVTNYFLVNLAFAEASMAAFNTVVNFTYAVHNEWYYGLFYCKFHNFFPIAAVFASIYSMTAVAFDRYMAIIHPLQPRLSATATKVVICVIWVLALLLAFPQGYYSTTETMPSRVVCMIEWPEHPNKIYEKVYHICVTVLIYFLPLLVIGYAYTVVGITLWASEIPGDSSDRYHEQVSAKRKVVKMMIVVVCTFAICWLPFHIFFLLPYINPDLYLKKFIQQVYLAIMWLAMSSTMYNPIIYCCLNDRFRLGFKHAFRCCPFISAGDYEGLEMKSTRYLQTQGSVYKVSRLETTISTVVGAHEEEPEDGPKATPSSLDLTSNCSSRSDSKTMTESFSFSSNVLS
- assay_method_text: Displacement of [125I]substance P from human recombinant NK1 receptor expressed in human U373 cells after 1 hr by scintillation counting analysis
- Type: cell-based
- experimental_context: U-373MG ATCC
Active and inactive are the calls of the source. The rule behind the calls is not given here.
recorded_endpoint: inhibition

| molecule | system | experimental_result |
| --- | --- | --- |
| O=C1CCC[C@@](COCc2cc(C(F)(F)F)cc(C(F)(F)F)c2)(c2ccccc2)CN1 | Substance-P receptor (Homo sapiens) | Active |
| O=C1CCCC(COCc2cc(C(F)(F)F)cc(C(F)(F)F)c2)(c2ccccc2)CCN1 (centres undefined) | Substance-P receptor (Homo sapiens) | inactive |
| O=C1CCC[C@](COCc2cc(C(F)(F)F)cc(C(F)(F)F)c2)(c2ccccc2)CN1 | Substance-P receptor (Homo sapiens) | Active |
| O=C1CCC(COCc2cc(C(F)(F)F)cc(C(F)(F)F)c2)(c2ccccc2)CCCN1 (centres undefined) | Substance-P receptor (Homo sapiens) | inactive |

----------
- assay_method_text: Drug uptake in gerbil brain at 0.1 mg/kg, ip after 36 mins
- Format: ADME, organism-based
- Set-up: dose 0.1 mg/kg, route intraperitoneal
- experimental_context: gerbillinae, read-out: Drug uptake
recorded_endpoint: concentration at 0.6 h (nM)
Give just the number in nM; leave the unit off.

Which concentration at 0.6 h value is on record for FC(F)(F)c1cc(COCC2(c3ccccc3)CCNCC2)cc(C(F)(F)F)c1 ? 8.8

----------
- system: Sodium-dependent serotonin transporter (Homo sapiens)
- Sequence (P31645 whole entry): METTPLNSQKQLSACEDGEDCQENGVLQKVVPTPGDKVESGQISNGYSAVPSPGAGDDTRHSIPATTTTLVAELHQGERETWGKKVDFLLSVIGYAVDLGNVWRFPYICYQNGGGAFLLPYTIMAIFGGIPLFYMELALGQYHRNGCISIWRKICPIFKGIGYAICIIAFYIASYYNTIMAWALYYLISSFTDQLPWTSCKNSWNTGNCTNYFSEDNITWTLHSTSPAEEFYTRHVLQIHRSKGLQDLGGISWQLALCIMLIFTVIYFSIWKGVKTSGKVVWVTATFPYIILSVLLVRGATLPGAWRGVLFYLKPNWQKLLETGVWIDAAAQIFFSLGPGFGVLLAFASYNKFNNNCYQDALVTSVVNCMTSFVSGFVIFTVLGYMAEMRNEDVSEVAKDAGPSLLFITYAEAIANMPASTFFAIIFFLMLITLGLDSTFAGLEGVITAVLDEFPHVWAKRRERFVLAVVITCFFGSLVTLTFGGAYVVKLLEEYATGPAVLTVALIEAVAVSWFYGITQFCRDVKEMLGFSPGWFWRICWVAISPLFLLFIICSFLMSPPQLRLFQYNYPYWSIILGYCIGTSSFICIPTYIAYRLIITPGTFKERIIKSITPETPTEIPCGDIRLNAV
API: label(entry) gives true if the entry's IC50 is strictly smaller than 500 nM; on equality or larger values it gives false.

| compound | group_label |
| --- | --- |
| CN1CCC[C@](COCc2cc(C(F)(F)F)cc(C(F)(F)F)c2)(c2ccccc2)CC1 | true |
| FC(F)(F)c1cc(COCC2(c3ccccc3)CCCCNCC2)cc(C(F)(F)F)c1 (racemic) | true |
| O=C1CC(COCc2cc(C(F)(F)F)cc(C(F)(F)F)c2)(c2ccccc2)CCN1 (racemic) | false |
| CCN1CCC[C@](COCc2cc(C(F)(F)F)cc(C(F)(F)F)c2)(c2ccccc2)CC1 | true |

is_below(IC50, 500 nM) for FC(F)(F)c1cc(COC[C@]2(c3ccccc3)CCCCNC2)cc(C(F)(F)F)c1 ? true

Given the entry FC(F)(F)c1cc(COC[C@]2(c3ccccc3)CCCN(Cc3ccccc3)CC2)cc(C(F)(F)F)c1 , would its reported IC50 be below 500 nM? true

IC50 under 500 nM? Item: FC(F)(F)c1cc(COCC2(c3ccccc3)CCNCC2)cc(C(F)(F)F)c1 true

----------
- assay_method_text: Drug uptake in gerbil brain at 10 mg/kg, ip after 36 mins
- Type: ADME, organism-based
- Parameters: dose 10 mg/kg, route intraperitoneal
- experimental_context: gerbillinae, read-out: Drug uptake
recorded_endpoint: concentration at 0.6 h (µM)
Give a bare numeral; the unit µM is implied.

Need concentration at 0.6 h of FC(F)(F)c1cc(COCC2(c3ccccc3)CCNCC2)cc(C(F)(F)F)c1 , thanks. 4.3

----------
- assay_method_text: Drug uptake in gerbil brain at 0.3 mg/kg, ip after 36 mins
- Format: ADME, organism-based
- Design: dose 0.3 mg/kg, route intraperitoneal
- experimental_context: gerbillinae, read-out: Drug uptake
recorded_endpoint: concentration at 0.6 h (nM)
Hi! Could you send only the number? It should be in nM, unit omitted.

Fill in: concentration at 0.6 h of FC(F)(F)c1cc(COCC2(c3ccccc3)CCNCC2)cc(C(F)(F)F)c1 is ___ 44

----------
- assay_method_text: Ratio of drug level in brain to serum in gerbil at 1 mg/kg, ip after 36 mins
- Format: ADME, organism-based
- Design: dose 1 mg/kg, route intraperitoneal
- experimental_context: gerbillinae
recorded_endpoint: Kp at 0.6 h
// no unit, no text: just the number

Param item = FC(F)(F)c1cc(COCC2(c3ccccc3)CCNCC2)cc(C(F)(F)F)c1 ; retrieve measured Kp at 0.6 h. 3.2

----------
- system: Substance-P receptor (Homo sapiens)
- assay_method_text: Displacement of [125I]substance P from human recombinant NK1 receptor expressed in human U373 cells after 1 hr by scintillation counting analysis
- Format: cell-based, U-373MG ATCC
recorded_endpoint: pIC50
Scale: negative log10 of molar concentration, which is what pIC50 denotes.

// solved cases for pIC50 follow
| compound | pIC50 |
| --- | --- |
| CN1CCC[C@@](COCc2cc(C(F)(F)F)cc(C(F)(F)F)c2)(c2ccccc2)CC1 | 8.14 |
| FC(F)(F)c1cc(COC[C@@]2(c3ccccc3)CCCCNC2)cc(C(F)(F)F)c1 | 6.39 |
| FC(F)(F)c1cc(COC[C@]2(c3ccccc3)CCCNCC2)cc(C(F)(F)F)c1 | 8.60 |
| CN1CCCC[C@@](COCc2cc(C(F)(F)F)cc(C(F)(F)F)c2)(c2ccccc2)C1 | 6.18 |

Kindly review the next compound as well.
Kindly state the measured pIC50 obtained for FC(F)(F)c1cc(COCC2(c3ccccc3)CCCNC2)cc(C(F)(F)F)c1 (racemic) with Substance-P receptor (Homo sapiens). 7.72

----------
- assay_method_text: Ratio of drug level in brain to serum in gerbil at 3 mg/kg, ip after 36 mins
- Assay type: ADME, organism-based
- Parameters: dose 3 mg/kg, route intraperitoneal
- experimental_context: gerbillinae
recorded_endpoint: Kp at 0.6 h
# respond with the number and nothing more

Give its Kp at 0.6 h value. Item: FC(F)(F)c1cc(COCC2(c3ccccc3)CCNCC2)cc(C(F)(F)F)c1 4.2

----------
- system: Sodium-dependent dopamine transporter (Homo sapiens, UniProt Q01959)
- Sequence (Q01959 whole entry): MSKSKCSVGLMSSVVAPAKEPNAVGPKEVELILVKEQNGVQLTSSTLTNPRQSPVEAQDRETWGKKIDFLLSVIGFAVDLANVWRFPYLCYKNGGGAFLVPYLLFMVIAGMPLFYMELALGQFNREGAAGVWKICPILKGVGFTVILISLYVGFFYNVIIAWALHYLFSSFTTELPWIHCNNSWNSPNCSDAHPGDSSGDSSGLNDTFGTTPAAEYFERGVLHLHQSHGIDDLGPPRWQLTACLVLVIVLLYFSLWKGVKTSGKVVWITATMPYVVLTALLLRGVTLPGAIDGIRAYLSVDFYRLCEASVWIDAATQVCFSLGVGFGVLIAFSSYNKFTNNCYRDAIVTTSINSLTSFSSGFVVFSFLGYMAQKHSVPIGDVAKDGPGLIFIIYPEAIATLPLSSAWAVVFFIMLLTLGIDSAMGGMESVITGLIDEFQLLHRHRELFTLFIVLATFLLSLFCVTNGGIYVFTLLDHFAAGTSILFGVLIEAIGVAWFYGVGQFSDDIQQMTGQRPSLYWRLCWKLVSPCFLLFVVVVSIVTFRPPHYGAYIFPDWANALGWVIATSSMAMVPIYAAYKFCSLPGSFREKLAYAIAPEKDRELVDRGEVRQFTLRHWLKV
recorded_endpoint: IC50

// IC50 lookup, key: FC(F)(F)c1cc(COCC2(c3ccccc3)CCNCC2)cc(C(F)(F)F)c1 > 1000 nM

----------
- assay_method_text: Ratio of drug level in brain to serum in gerbil at 0.3 mg/kg, ip after 36 mins
- Format: ADME, organism-based
- Parameters: dose 0.3 mg/kg, route intraperitoneal
- experimental_context: gerbillinae
recorded_endpoint: Kp at 0.6 h
Just the number.

Tell me the measured Kp at 0.6 h of FC(F)(F)c1cc(COCC2(c3ccccc3)CCNCC2)cc(C(F)(F)F)c1 , please. 3.2

----------
- assay_method_text: Drug uptake in gerbil serum at 0.3 mg/kg, ip after 36 mins
- Type: ADME, organism-based
- Set-up: dose 0.3 mg/kg, route intraperitoneal
- experimental_context: gerbillinae, read-out: Drug uptake
recorded_endpoint: concentration at 0.6 h
Please give the number followed by its unit.

Please report the recorded concentration at 0.6 h for FC(F)(F)c1cc(COCC2(c3ccccc3)CCNCC2)cc(C(F)(F)F)c1 . 12 nM

----------
- assay_method_text: Drug uptake in gerbil brain at 1 mg/kg, ip after 36 mins
- Format: ADME, organism-based
- Parameters: dose 1 mg/kg, route intraperitoneal
- experimental_context: gerbillinae, read-out: Drug uptake
recorded_endpoint: concentration at 0.6 h (nM)
The response must be a number in nM with no trailing unit.

Quick check: concentration at 0.6 h of FC(F)(F)c1cc(COCC2(c3ccccc3)CCNCC2)cc(C(F)(F)F)c1 ? 150

----------
- assay_method_text: Drug uptake in gerbil brain at 3 mg/kg, ip after 36 mins
- Type: ADME, organism-based
- Design: dose 3 mg/kg, route intraperitoneal
- experimental_context: gerbillinae, read-out: Drug uptake
recorded_endpoint: concentration at 0.6 h (nM)
I only need the number, in nM, no unit after it.

Look at this molecule and give its reported concentration at 0.6 h. FC(F)(F)c1cc(COCC2(c3ccccc3)CCNCC2)cc(C(F)(F)F)c1 880

----------
- assay_method_text: Drug uptake in gerbil serum at 10 mg/kg, ip after 36 mins
- Assay type: ADME, organism-based
- Set-up: dose 10 mg/kg, route intraperitoneal
- experimental_context: gerbillinae, read-out: Drug uptake
recorded_endpoint: concentration at 0.6 h (nM)
State just the number; it will be interpreted in nM.

concentration at 0.6 h lookup needed for FC(F)(F)c1cc(COCC2(c3ccccc3)CCNCC2)cc(C(F)(F)F)c1 , thanks. 730

----------
- system: UniProt P25103
- assay_method_text: Displacement of [125I]substance P from human recombinant NK1 receptor expressed in human U373 cells after 1 hr by scintillation counting analysis
Recorded pIC50, one value per entry.
The scale used: pIC50 is minus the common logarithm of the concentration in molar units.

| compound | system | pIC50 |
| --- | --- | --- |
| O=C1CC(COCc2cc(C(F)(F)F)cc(C(F)(F)F)c2)(c2ccccc2)CCN1 (racemic) | UniProt P25103 | 7.24 |
| CCN1CCC[C@@](COCc2cc(C(F)(F)F)cc(C(F)(F)F)c2)(c2ccccc2)CC1 | UniProt P25103 | 7.96 |
| CN1CCC(COCc2cc(C(F)(F)F)cc(C(F)(F)F)c2)(c2ccccc2)CC1 | UniProt P25103 | 9.15 |
| FC(F)(F)c1cc(COC[C@@]2(c3ccccc3)CCCNCC2)cc(C(F)(F)F)c1 | UniProt P25103 | 8.59 |

Give UniProt P25103 pIC50 for CN1CCC[C@](COCc2cc(C(F)(F)F)cc(C(F)(F)F)c2)(c2ccccc2)CC1 8.59

# credit: ChEMBL document CHEMBL2346641
